target.desc: G2019S LRRK2 (Homo sapiens, UniProt Q5S007, G2019S)
Construct: expressed in transfected cells; host or cells: HEK293 (ATCC CRL-1573)
Sequence (Q5S007 whole entry G2019S): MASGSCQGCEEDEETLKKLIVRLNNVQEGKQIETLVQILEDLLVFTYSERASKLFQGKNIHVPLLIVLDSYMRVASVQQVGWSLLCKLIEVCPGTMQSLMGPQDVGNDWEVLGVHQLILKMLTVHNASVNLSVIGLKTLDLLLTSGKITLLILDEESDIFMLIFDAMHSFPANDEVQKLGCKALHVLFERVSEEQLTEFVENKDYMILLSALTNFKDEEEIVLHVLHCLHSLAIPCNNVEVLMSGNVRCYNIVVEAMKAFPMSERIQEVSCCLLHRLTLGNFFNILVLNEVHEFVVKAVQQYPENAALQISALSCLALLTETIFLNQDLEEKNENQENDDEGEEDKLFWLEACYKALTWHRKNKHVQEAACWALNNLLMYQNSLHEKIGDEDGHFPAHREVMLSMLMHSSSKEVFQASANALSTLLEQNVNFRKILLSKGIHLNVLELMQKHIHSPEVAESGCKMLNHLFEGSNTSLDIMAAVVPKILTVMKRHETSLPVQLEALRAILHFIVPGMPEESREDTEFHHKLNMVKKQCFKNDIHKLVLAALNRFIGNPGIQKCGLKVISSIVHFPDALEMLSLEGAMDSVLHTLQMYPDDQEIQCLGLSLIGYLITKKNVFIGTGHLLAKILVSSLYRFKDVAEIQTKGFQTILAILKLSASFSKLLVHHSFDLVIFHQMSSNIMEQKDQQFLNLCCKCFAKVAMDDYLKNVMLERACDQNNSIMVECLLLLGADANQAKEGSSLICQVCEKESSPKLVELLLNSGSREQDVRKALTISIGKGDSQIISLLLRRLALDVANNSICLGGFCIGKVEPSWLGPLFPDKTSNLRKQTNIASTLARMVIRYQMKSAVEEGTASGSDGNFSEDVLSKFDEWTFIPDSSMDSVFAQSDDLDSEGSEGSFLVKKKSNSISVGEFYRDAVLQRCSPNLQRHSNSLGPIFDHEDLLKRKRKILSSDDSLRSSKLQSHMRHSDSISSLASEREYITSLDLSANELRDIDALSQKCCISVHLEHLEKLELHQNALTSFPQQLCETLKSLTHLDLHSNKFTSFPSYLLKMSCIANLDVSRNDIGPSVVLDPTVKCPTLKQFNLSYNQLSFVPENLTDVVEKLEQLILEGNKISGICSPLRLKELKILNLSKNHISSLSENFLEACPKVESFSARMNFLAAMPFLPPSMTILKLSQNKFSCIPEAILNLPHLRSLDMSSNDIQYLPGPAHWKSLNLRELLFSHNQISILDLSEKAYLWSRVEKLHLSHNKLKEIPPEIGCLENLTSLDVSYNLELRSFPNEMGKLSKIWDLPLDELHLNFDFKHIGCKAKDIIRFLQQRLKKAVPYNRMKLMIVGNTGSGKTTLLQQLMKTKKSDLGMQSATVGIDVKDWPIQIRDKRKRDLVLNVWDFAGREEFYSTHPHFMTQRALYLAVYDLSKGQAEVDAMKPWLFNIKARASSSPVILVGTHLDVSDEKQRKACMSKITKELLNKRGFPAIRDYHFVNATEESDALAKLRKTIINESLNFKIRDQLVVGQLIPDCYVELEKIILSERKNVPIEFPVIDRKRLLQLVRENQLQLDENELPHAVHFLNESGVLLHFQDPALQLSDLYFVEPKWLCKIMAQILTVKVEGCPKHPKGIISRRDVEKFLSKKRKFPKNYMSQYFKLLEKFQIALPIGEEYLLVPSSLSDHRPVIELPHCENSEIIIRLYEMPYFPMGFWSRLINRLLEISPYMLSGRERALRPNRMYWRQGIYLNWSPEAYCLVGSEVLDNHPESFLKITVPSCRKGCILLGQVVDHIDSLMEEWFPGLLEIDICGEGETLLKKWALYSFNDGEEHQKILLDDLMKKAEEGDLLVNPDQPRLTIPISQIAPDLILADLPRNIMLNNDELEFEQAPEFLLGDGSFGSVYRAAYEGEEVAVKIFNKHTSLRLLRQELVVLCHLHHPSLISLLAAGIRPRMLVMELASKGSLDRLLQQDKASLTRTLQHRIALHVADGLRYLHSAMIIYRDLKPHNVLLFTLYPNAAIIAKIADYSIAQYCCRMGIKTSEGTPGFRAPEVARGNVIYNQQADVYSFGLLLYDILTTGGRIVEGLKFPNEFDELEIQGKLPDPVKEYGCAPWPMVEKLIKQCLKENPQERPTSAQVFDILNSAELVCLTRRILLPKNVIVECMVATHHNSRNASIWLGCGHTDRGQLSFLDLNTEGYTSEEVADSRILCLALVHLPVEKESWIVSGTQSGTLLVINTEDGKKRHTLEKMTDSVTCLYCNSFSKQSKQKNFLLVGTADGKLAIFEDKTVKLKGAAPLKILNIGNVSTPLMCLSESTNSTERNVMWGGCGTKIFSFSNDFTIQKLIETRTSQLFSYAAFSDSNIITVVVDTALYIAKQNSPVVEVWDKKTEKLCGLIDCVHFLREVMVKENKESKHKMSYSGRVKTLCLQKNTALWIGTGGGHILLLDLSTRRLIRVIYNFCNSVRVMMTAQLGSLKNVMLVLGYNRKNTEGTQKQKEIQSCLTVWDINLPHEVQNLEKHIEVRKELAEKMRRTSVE
protocol.description: LRRK2 degradation HiBit assay, G2019S LRRK2 tagged with a HiBit tag expressed in HEK293 cells
Format: cell-based
experimental.context: HEK293 cells, 24 hours compound incubation
Measured DC50, listed per entry.

CC1=C(C(=O)Nc2ccc3[nH]nc(-c4ccnc(N5C[C@@H](C)N(CC6CCN(CC7CCN(c8ccc9c(c8)C(=O)N(C8CCC(=O)NC8=O)C9=O)CC7)CC6)[C@@H](C)C5)c4)c3c2)Cn2nnnc2N1C (some centres unmarked) ... < 10 nM
CC1=C(C(=O)Nc2ccc3[nH]nc(-c4ccnc(N5CCN(CC6CCN(CC7CCN(c8ccc9c(c8)C(=O)N(C8CCC(=O)NC8=O)C9=O)CC7)CC6)CC5)c4)c3c2)[C@H](C)n2nnnc2N1C (some centres unmarked) ... ≥ 100 nM
CC1=C(C(=O)Nc2ccc3[nH]nc(-c4ccnc(N5CCN(CC(F)(F)C6CCN(CC7CCN(c8ccc9c(c8)C(=O)N(C8CCC(=O)NC8=O)C9=O)CC7)CC6)CC5)c4)c3c2)[C@@H](C)n2nnnc2N1C (some centres unmarked) ... < 10 nM
CC1=C(C(=O)Nc2ccc3[nH]nc(-c4ccnc(N5CCN(CC6CCN(CC7CCN(c8ccc9c(c8)C(=O)N(C8CCC(=O)NC8=O)C9=O)CC7)CC6)[C@@H](C)C5)c4)c3c2)Cn2nnnc2N1C (some centres unmarked) ... < 10 nM

Recall and state the measured DC50 for CC1=C(C(=O)Nc2ccc3[nH]nc(-c4ccnc(N5C[C@@H](C)N(CCOCCOCCN6CCN(c7ccc8c(c7)C(=O)N(C7CCC(=O)NC7=O)C8=O)CC6)[C@@H](C)C5)c4)c3c2)Cn2nnnc2N1C (some centres unmarked) .
≥ 100 nM
